Entries and their pKd values follow.
Target: UniProt Q86WV6
pKd: −log10 of the molar value.

CCc1nc(C)oc1C(=O)Nc1nc2cc(C(N)=O)cnc2n1C/C=C/Cn1c(NC(=O)c2oc(C)nc2CC)nc2cc(C(N)=O)cc(OCCCO)c21 [Reference Compd B, reference compound] : ≥ 7.70
CCn1nc(C)cc1C(=O)Nc1nc2cc(C(N)=O)cnc2n1CCCCn1c(NC(=O)c2cc(C)nn2CC)nc2cc(C(N)=O)cc(OCCCN3CCC(c4nnc5n4CCNC5)CC3)c21 : ≥ 7.70
CCn1nc(C)cc1C(=O)Nc1nc2cc(C(N)=O)ccc2n1C/C=C/Cn1c(NC(=O)c2cc(C)nn2CC)nc2cc(C(N)=O)cc(OCCCN3CC4(C3)CN(C(=O)[C@H](CC(C)C)NC(=O)CCCCCO/N=C(\C)c3ccc(C[C@H](N)C(=O)O)cc3)CCO4)c21 : ≥ 7.70
CCn1nc(C)cc1C(=O)Nc1nc2cc(C(N)=O)cc(OC)c2n1C/C=C/Cn1c(NC(=O)Cc2cc(C)nn2C)nc2cc(C(N)=O)cc(OCCCN3CC4(CNCCO4)C3)c21 : ≤ 7.70
CCn1nc(C)cc1C(=O)Nc1nc2cc(C(N)=O)ccc2n1C/C=C/Cn1c(NC(=O)c2cc(C)nn2CC)nc2cc(C(N)=O)cc(OCCCN3CC4(C3)CN(C(=O)CN)CCO4)c21 : ≥ 7.70

Inquiry: Which pKd is reported for this compound? "CCn1nc(C)cc1C(=O)Nc1nc2cc(C(N)=O)cc(OC)c2n1C/C=C/Cn1c(N2CCn3nc(C)cc3C2=O)nc2cc(C(N)=O)cc(OCCCN3CC4(CNCCO4)C3)c21"
Reply text: ≤ 7.70

---

Biological target: hSTING-HAQ haplotype (Homo sapiens, UniProt Q86WV6, G230A/H232R/R293Q/R71H)
Construct: host or cells: THP-1-Dual
Sequence (Q86WV6 whole entry R71H/G230A/H232R/R293Q): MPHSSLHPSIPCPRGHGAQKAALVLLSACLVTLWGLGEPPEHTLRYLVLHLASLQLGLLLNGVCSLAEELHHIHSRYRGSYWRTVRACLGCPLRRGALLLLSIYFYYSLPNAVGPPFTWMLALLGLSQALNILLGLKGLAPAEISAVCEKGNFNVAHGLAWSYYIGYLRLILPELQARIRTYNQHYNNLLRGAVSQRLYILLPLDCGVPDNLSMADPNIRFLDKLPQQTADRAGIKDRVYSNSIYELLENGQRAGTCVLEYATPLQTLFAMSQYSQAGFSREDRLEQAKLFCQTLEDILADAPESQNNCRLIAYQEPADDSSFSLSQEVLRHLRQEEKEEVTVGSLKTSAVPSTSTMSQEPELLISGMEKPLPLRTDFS
Experiment: THP-1-Dual reporter assay (endogenous hSTING-HAQ)
Format: cell-based
Conditions: THP-1-Dual cells (hSTING-HAQ), 24 hours
QUANTITY_MEASURED: EC50

COc1cc(C(N)=O)cc2nc(NC(=O)c3oc(C)nc3C)n(C/C=C/Cn3c(NC(=O)c4oc(C)nc4C)nc4cc(C(N)=O)cc(OCCCN5CCC(c6nnc7n6CCNC7)CC5)c43)c12 : > 150 nM

Inquiry: Any idea what its EC50 is? The molecule is "CCn1nc(C)cc1C(=O)Nc1nc2cc(C(N)=O)cc(OC)c2n1C/C=C/Cn1c(NC(=O)Cc2cc(C)n(C)n2)nc2cc(C(N)=O)cc(OCCCN3CC4(CNCCO4)C3)c21"
Reply text: > 150 nM

Inquiry: And the next one, "CCn1nc(C)cc1C(=O)Nc1nc2cc(C(N)=O)cc(OC)c2n1C/C=C/Cn1c(NC(=O)c2cc(C)nn2CC)nc2cc(C(N)=O)cc(OCCCN3CC4(C3)CN(C(=O)CCCCCON)CCO4)c21" ?
Reply text: ≤ 50 nM

Inquiry: Let us now turn to "CCn1nc(C)cc1C(=O)Nc1nc2cc(C(N)=O)cc(OC)c2n1C/C=C/Cn1c(N2CCn3nc(C)cc3C2=O)nc2cc(C(N)=O)cc(OCCCN3CC4(CNCCO4)C3)c21"
Reply text: > 150 nM

Inquiry: Could you do the same for "CCn1nc(C)cc1C(=O)Nc1nc2cc(C(N)=O)cc(OC)c2n1C/C=C/Cn1c(NC(=O)c2cc(C)nn2CC)nc2cc(C(N)=O)cc(OCCCN3CC4(C3)CN(C(=O)[C@@H](N)CC(C)C)CCO4)c21" , please?
Reply text: ≤ 50 nM
